Data credit: ChEMBL document CHEMBL6134779

Some compounds, each annotated with its measured MIC95.
- Tested on: Candida albicans
- procedure.summary: Antifungal activity against Candida albicans SP3876 assessed as inhibition of fungal growth incubated for 48 hrs
- Type: functional

Please review the entries below; each comes with its answer.
| compound | result |
| --- | --- |
| OC(Cn1cncn1)(Cn1cncn1)c1ccc(F)cc1F | 8 µM |
| CC[C@H](C)[C@H](N)C(=O)N[C@H](C(=O)N[C@H](CCCNC(=N)N)C(=O)N[C@@H](CCCNC(=N)N)C(=O)N[C@@H](Cc1c[nH]cn1)C(=O)N[C@H](C(=O)N[C@H](C(=O)N[C@H](C(=O)N[C@H](C(=O)N[C@H](CCCNC(=N)N)C(=O)N[C@@H](CCCNC(=N)N)C(=O)N[C@@H](Cc1c[nH]cn1)C(=O)N[C@H](C(=O)N[C@H](C(N)=O)[C@@H](C)CC)[C@@H](C)CC)[C@@H](C)CC)[C@@H](C)CC)[C@@H](C)CC)[C@@H](C)CC)[C@@H](C)CC | 32 µM |

Item `CC(C)[C@H](N)C(=O)N[C@H](C(=O)N[C@H](CCCNC(=N)N)C(=O)N[C@@H](CCCNC(=N)N)C(=O)N[C@@H](Cc1c[nH]cn1)C(=O)N[C@H](C(=O)N[C@H](C(N)=O)C(C)C)C(C)C)C(C)C` has what recorded MIC95? > 64 µM

Value lookup for MIC95; key = `CC[C@H](C)[C@H](N)C(=O)N[C@H](C(=O)N[C@H](CCCNC(=N)N)C(=O)N[C@@H](CCCNC(=N)N)C(=O)N[C@@H](Cc1c[nH]cn1)C(=O)N[C@H](C(=O)N[C@H](C(N)=O)[C@@H](C)CC)[C@@H](C)CC)[C@@H](C)CC` > 64 µM

====

- procedure.summary: Stability of the compound in FeCl3 assessed as change in secondary structure by CD spectra analysis
- Type: physicochemical

| smiles.data | Stability |
| --- | --- |
| CC(C)[C@H](N)C(=O)N[C@H](C(=O)N[C@H](CCCNC(=N)N)C(=O)N[C@@H](CCCNC(=N)N)C(=O)N[C@@H](Cc1c[nH]cn1)C(=O)N[C@H](C(=O)N[C@H](C(=O)N[C@H](C(=O)N[C@H](C(=O)N[C@H](CCCNC(=N)N)C(=O)N[C@@H](CCCNC(=N)N)C(=O)N[C@@H](Cc1c[nH]cn1)C(=O)N[C@H](C(=O)N[C@H](C(N)=O)C(C)C)C(C)C)C(C)C)C(C)C)C(C)C)C(C)C)C(C)C | Stable |
| CC[C@H](C)[C@H](N)C(=O)N[C@H](C(=O)N[C@H](CCCNC(=N)N)C(=O)N[C@@H](CCCNC(=N)N)C(=O)N[C@@H](Cc1c[nH]cn1)C(=O)N[C@H](C(=O)N[C@H](C(N)=O)[C@@H](C)CC)[C@@H](C)CC)[C@@H](C)CC | Stable |
| CC(C)[C@H](N)C(=O)N[C@H](C(=O)N[C@H](CCCNC(=N)N)C(=O)N[C@@H](CCCNC(=N)N)C(=O)N[C@@H](Cc1c[nH]cn1)C(=O)N[C@H](C(=O)N[C@H](C(N)=O)C(C)C)C(C)C)C(C)C | Stable |

====

- Tested on: Candida albicans
- procedure.summary: Antifungal activity against Candida albicans SP3931 assessed as inhibition of fungal growth incubated for 48 hrs
- Assay type: functional
recorded.endpoint: MIC95

| compound | MIC95 |
| --- | --- |
| CC(C)[C@H](N)C(=O)N[C@H](C(=O)N[C@H](CCCNC(=N)N)C(=O)N[C@@H](CCCNC(=N)N)C(=O)N[C@@H](Cc1c[nH]cn1)C(=O)N[C@H](C(=O)N[C@H](C(=O)N[C@H](C(=O)N[C@H](C(=O)N[C@H](CCCNC(=N)N)C(=O)N[C@@H](CCCNC(=N)N)C(=O)N[C@@H](Cc1c[nH]cn1)C(=O)N[C@H](C(=O)N[C@H](C(N)=O)C(C)C)C(C)C)C(C)C)C(C)C)C(C)C)C(C)C)C(C)C | > 64 µM |
| C[C@@H]1[C@H](O)[C@@H](C)/C=C/C=C/C=C/C=C/C=C/C=C/C=C/[C@H](O[C@@H]2O[C@H](C)[C@@H](O)[C@H](N)[C@@H]2O)C[C@@H]2O[C@](O)(C[C@@H](O)C[C@@H](O)[C@H](O)CC[C@@H](O)C[C@@H](O)CC(=O)O[C@H]1C)C[C@H](O)[C@H]2C(=O)O | 0.25 µM |
| CC[C@H](C)[C@H](N)C(=O)N[C@H](C(=O)N[C@H](CCCNC(=N)N)C(=O)N[C@@H](CCCNC(=N)N)C(=O)N[C@@H](Cc1c[nH]cn1)C(=O)N[C@H](C(=O)N[C@H](C(=O)N[C@H](C(=O)N[C@H](C(=O)N[C@H](CCCNC(=N)N)C(=O)N[C@@H](CCCNC(=N)N)C(=O)N[C@@H](Cc1c[nH]cn1)C(=O)N[C@H](C(=O)N[C@H](C(N)=O)[C@@H](C)CC)[C@@H](C)CC)[C@@H](C)CC)[C@@H](C)CC)[C@@H](C)CC)[C@@H](C)CC)[C@@H](C)CC | 16 µM |
| CC[C@H](C)[C@H](N)C(=O)N[C@H](C(=O)N[C@H](CCCNC(=N)N)C(=O)N[C@@H](CCCNC(=N)N)C(=O)N[C@@H](Cc1c[nH]cn1)C(=O)N[C@H](C(=O)N[C@H](C(N)=O)[C@@H](C)CC)[C@@H](C)CC)[C@@H](C)CC | > 64 µM |

Which MIC95 reading was recorded for the compound `CC(C)[C@H](N)C(=O)N[C@H](C(=O)N[C@H](CCCNC(=N)N)C(=O)N[C@@H](CCCNC(=N)N)C(=O)N[C@@H](Cc1c[nH]cn1)C(=O)N[C@H](C(=O)N[C@H](C(N)=O)C(C)C)C(C)C)C(C)C` ? > 64 µM

Any idea what MIC95 was measured for `OC(Cn1cncn1)(Cn1cncn1)c1ccc(F)cc1F` ? 2 µM

What does the record list as MIC95 for CC(=O)N1CCN(c2ccc(OCC3COC(Cn4ccnc4)(c4ccc(Cl)cc4Cl)O3)cc2)CC1 (configuration not stated) ? 4 µM
